# Tested on: MS2 coat protein
# Method Summary: apparent Kd, MS2 coat protein; higher = weaker binding; RNA-MaP array; FMN 200 µM where present
# Condition Label: designed as: OFF switch for flavin mononucleotide; no ligand
The following sequences are listed with their measured apparent Kd values.

Worked cases, apparent Kd given:
GAGCUCGAUGAGAAGGGUUACAUGAGGAUCACCCAUGUCGACCUUGGCGUAACAGGAUAUCACCGGGCUCAGUGCGUUGACCCA :: 0.0271 µM
GGAUCGAAUGUGAGGAUAUACCUAUGGAAACAUAGGUAGAAGGCACAUGAGGAUCACCCAUGUUCCUACGGUCC :: 0.0922 µM
CAGCAAAAGUAGAAGGCAGUACUGAUUCAGUACUGAGGAUAUACAUGAGGAUCACCCAUGUAAUAUAGCUGAAUAAUAUAUUAU :: 0.00617 µM

Entry under test: `UUUUUGUGAGGAUAUGCGUAGUAGAACAAUAGUACUACUACGUAGAAGGCACAUGAGGAUCACCCAUGUUCCUC` . Its apparent Kd was 0.0378 µM

Lookup result for `ACGUAUCUAGGAUAUACGCUGGGUACUAUUCUCAAGUCAAGACAUGAGGAUCACCCAUGUAGAAGGAGAAGCAA` ; measured apparent Kd: 0.041 µM

Quick note, apparent Kd for `GGCAUGUGGGCAGGAUAUAACUCGGUCUCUAGGUUAGAAGGGCCACACAUGAGGAUCACCCAUGUCGACCAGGCAGUCCUCCCU` landed at 0.0262 µM

Lab note: `ACUAUACGAGGAUAUACUGUCGGGCCUCGGGCAUACAUACGACAUGAGGAUCACCCAUGUAGAAGGCGUUUACU` gave apparent Kd of 0.0343 µM

----------
# Test system: MS2 coat protein
# Method Summary: apparent Kd, MS2 coat protein; higher = weaker binding; RNA-MaP array; tryptophan 2.4 mM where present
# Condition Label: ligand present: tryptophan; designed as: ON switch for tryptophan
Measurement Kind: apparent Kd (nM)
Give the value in nM but do not write nM after it.

Some sequences with known apparent Kd results, for comparison:
GGGACAUGAGGAUCACCCAUGUACCGGUCCCGAGGACCGGUACGGCCGCCACUCGAUGACCUCAUAGUCUGCCUGAGCAGCAGAC :: 119
AGCAACAAGUCGGCCGCCACUCAUUUAACAUGAGGAUCACCCAUGUGAAUAACAUGAUUGUAAUAGAGGACCGGGACAGUUGCAU :: 31

Entry `UGUCAGCGAAAGUUGACAUGUUGAACCGGUCGAGGACCGGUACGGCCGCCACUCGAUCUCUCGUACAUGAGGAUCACCCAUGUCG` under MS2 coat protein had apparent Kd of 10.7

Note to self: apparent Kd of `UAAACUACACAUGAGGAUCACCCAUGUGGCCGAGGACCGGUACGGCCGCCACUCGUGUGUUAAUAAAAGAACUGCAAGGUUCUUC` with MS2 coat protein was 73.1

----------
Each entry below lists one item and its recorded apparent Kd value.
# System: MS2 coat protein
# Method Summary: apparent Kd, MS2 coat protein; higher = weaker binding; RNA-MaP array
# Condition Label: designed as: OFF switch for flavin mononucleotide; no ligand
# value in nM; strip the unit string

These solved cases illustrate the format of a correct answer.
GCACAAUUAGGAUAUACAUGGGUAUAGGGUGAGACGAAUGCACAUGAGGAUCACCCAUGUAGAAGGAAUCGUCA :: 303
GUUGAGGGCGUGCACAUGAGGAUCACCCAUGUUCUACCUAUCGAGGAUAUAUCUGUAGGAUCAGAAUAGAAGGCGAGCAAGGUC :: 21.4

Per the records, this sequence ( `ACAUCGAGGCGAGGAUAUAUGACAUGAGGAUCACCCAUGUCUGCGUGAUCGUCGAACAAAUGUUCAUAGAAGGCGCUAGAAAUG` ) has apparent Kd equal to 112

Measured apparent Kd of `GACGAGAGACAGAAGGCUCGACUGUGGCUACGAGAUCUGAAAACAUGAGGAUCACCCAUGUUUCGAGAGGAUAUGUCGAAUUAU` : 129

----------
# Test system: MS2 coat protein
# Method Summary: apparent Kd, MS2 coat protein; higher = weaker binding; RNA-MaP array; FMN 200 µM where present
# Condition Label: ligand present: flavin mononucleotide; designed as: OFF switch for flavin mononucleotide
Values of apparent Kd greater than or equal to 50 nM map to label 1; values below map to label 0.

Worked set:
GUUUAGUGAGGAUAUGUGGCUUCGAUCGUGCGAGGGCGGCUACAGAAGGCACAUGAGGAUCACCCAUGUUCCUC :: label 1
ACGACUAGAGGAUAUACAUGAGGAUCACCCAUGUAACUGUCAGGAAACUGACGGAGAUGUAGAAGGCUAGUCGA :: label 0
GUUUGAUGAGGAUAUCGAGGUUAGUACAUGAGGAUCACCCAUGUUAUCCAGGUGUCGGUUCGAGAAGGUAUUGGAC :: label 0
UGCUAGGACCUAGGAUAUCCUGGGUUGGUGGUGCUUGAUGACCGGACAUGAGGAUCACCCAUGUAGGAGAAGGAGGUUGUUAAG :: label 1
CGAUAGGACAGAGGAUAUACACAUGAGGAUCACCCAUGUGAUUUCAGCGCGAAAGCGCCAAACAUGUAGAAGGCUGUCCUAUCG :: label 0
UGAGCCUCGUGAGGAUAUACAUGAGGAUCACCCAUGUAAUAAAGUGAACGGAGGAAACUCCGAAUGUAGAAGGUACGAGGCUCA :: label 0
UUUUACUGAGGAUAUACAUUUUUUUAUUUAUUUAUAAUAUUACAUGAGGAUCACCCAUGUAGAAGGCAGAUUUU :: label 0
GGGCCGAAAGGCCCGCGGGCCCGGCAGGAUAUACAUGAGGAUCACCCAUGUCCGGCGAAAGCCGGGUAGAAGGGCCGGGCCCGC :: label 0
AAACCGUGUGGAGGAUAUGCAGUUGAGGUAAGGCGGCAGCUCUAUACGACAGCAGAAGGCCACAUGAGGAUCACCCAUGUAGGU :: label 1
AAGAAGUGAGGAUAUGUCUGUGCGAAAAAAAAAAAGUGCAGACAGAAGGCACAUGAGGAUCACCCAUGUCAAAA :: label 0

# input Does `UAUGUAUUCGUAGGAUAUCCGUUAAAACCAUGUGGAGAAGGACGAACAUGAGGAUCACCCAUGUAUCAUGGUGUAGACAAUUUU` have a reported apparent Kd of at least 50 nM?
# output label 1

# input // inclusive: apparent Kd at least 50 nM? input: `UGCGGUAGAGGAUAUACGUAGAAGUAGAUUCAUGUAAAACUACAUGAGGAUCACCCAUGUAGAAGGCUAUCGCU`
# output label 1

# input Decide: apparent Kd of `AACAAACAUGAGGAUCACCCAUGUCAGGAUAUGGCGGCUAGUGUGCCACCGUACACUACCAGAAGGGACUGGGU` >= 50 nM?
# output label 1

# input Has `UUGUUGUGAGGAUAUCCAAUAUAUGACAUGAGGAUCACCCAUGUUUCCACUCGUACCUCCGGAGAAGGCACUUGGU` a recorded apparent Kd greater than or equal to 50 nM?
# output label 0

# input Form field: apparent Kd at least 50 nM? Entry: `UUGUUGUAUGUAGGAUAUGCAUAUUAUUAUUGUGCAGAAGGACAUGAGGAUCACCCAUGUAUAUUAUUAUUAUAUAUUAUAUAU`
# output label 1

# input Check if apparent Kd >= 50 nM (inclusive). Item: `AAAUAGUUAGGAUAUACAUGAGGAUCACCCAUGUGGACUGAUGGCGCUUGAUUCAGUGGUAGAAGGGACUCAAA`
# output label 1

# input Does `GGAUCGAAUGUGAGGAUAUACCUAUGGAAACAUAGGUAGAAGGCACAUGAGGAUCACCCAUGUUCCUACGGUCC` have a reported apparent Kd of at least 50 nM?
# output label 1

# input Kindly determine if apparent Kd recorded for `GAACUGAAGCAUAGCUUUAGUCGUACAUGAGGAUCACCCAUGUAGGAUAUAGUAGGCAUAGCUUACUAGAAGGAUAGAGUGAUC` is above or exactly 50 nM.
# output label 1

# input Please check the record `GUCAGCUCGUGAGGAUAUACAACACUCCUUCGGCAGUGUAUUAAGAUCACAUGAGGAUCACCCAUGUAGAAGGCACGAGCUGAU` and state if its apparent Kd is at or above 50 nM.
# output label 1

# input Given `AACUAUGAAUUGAUAGUGUCUGACAGAAGGCAAUAGGUUGUGACCGACAUGAGGAUCACCCAUGUUGAGGAUAUGUCUAGCUAC` , state whether its apparent Kd is at least 50 nM.
# output label 1

# input Decide: apparent Kd of `UUGCCCGCCGGAGGAUAUCUACUCUGUGGUGCACUGCGUUUGCAAUACAUGAGGAUCACCCAUGUAGAGAAGGCCGAGGGCACA` >= 50 nM?
# output label 0

# input Check the entry `GUUGUUACUGAGGAUAUUAUUUUAUUCGACUGAUAAGAAGGCAGUACAUGAGGAUCACCCAUGUGGGUAGCCAG` : does apparent Kd equal or exceed 50 nM?
# output label 1

# input Determine whether this sequence has apparent Kd no lower than 50 nM: `GAUAGGACAGAGAAGGUACGUGCUAGAGAUACUAGCAAAAUACCUCAACAUGAGGAUCACCCAUGUAAGGAUAUCUGUCCUAUC`
# output label 0

# input I'd appreciate it if you could say whether `GGUGUGAGGCAGGAUAUGCUAUAUGUUCGUAAUGCAGAAGGGUCUACAUGAGGAUCACCCAUGUGUGCGGUUGA` has apparent Kd at least equal to 50 nM.
# output label 1

# input Does the reported apparent Kd for `UUGGUAUUUGUAGGAUAUCUGUCGCCACCGUGUGGAGAAGGACGAACAUGAGGAUCACCCAUGUAUCAUGGUGUGGGCUUUGCU` fall at or above the 50 nM mark?
# output label 1

# input Could you verify whether the entry `UCGUGAAGGACAGGAUAUGGACAUGAGGAUCACCCAUGUACAUGGGAAUAUAUACUGAAUUUGUACUAGAAGGGUUACAUAAAC` shows apparent Kd of no less than 50 nM?
# output label 0

# input Please check the record `GAGAAGAAGUUAGGAUAUUGGAUAGGGACGGAAUAAGAAGGAGCAAGACAUGAGGAUCACCCAUGUGUAGAAGAAGAGAUCCUC` and state if its apparent Kd is at or above 50 nM.
# output label 1

# input Tell me whether apparent Kd is at least 50 nM here: `GUGUCGGGAGGAUAUGCGUGGAUUGUUCUCGUAUGGUGUCUACAUGAGGAUCACCCAUGUAGAAGGUCUGGCGC`
# output label 1

# input # bool: apparent Kd of `GGAAGACAAAGUCUUCCUAUUCGAACAUGAGGAUCACCCAUGUAGGAUAUGCUACUCAAAGAGUAGCAGAAGGACAUGUGCUUU` >= 50 nM
# output label 1
